Data provenance is the supplement of paper PMC9732359.

Assay: protein stability index of a GFP-peptide fusion (yeast GPS) (PSI 1-4); higher = more stable; sorted into four equal gates, so the index is relative within each strain
Settings: san1∆
# binarize protein stability index: threshold 3 inclusive, high side T, low side F

# example entries with known answers
sequence: IRKYGLNICRQCFREKA [RPS29A]
class.label: F

sequence: SMKMELLKKELLTIEPK [SMC2]
class.label: F

sequence: AIVFEEIKNWISDIPYV [YMR129W/POM152]
class.label: F

sequence: TKKSKLESTKAETDYVD [DSN1]
class.label: F

sequence: ISKKIIGMSLLMRTFLY [SIR3]
class.label: F

Ask | Is the recorded value of protein stability index equal to or greater than 3 for this sequence? DNVVRFLNEARDKAGRL [RPO21]
Reply | F

====

Test: protein stability index of a GFP-peptide fusion (yeast GPS) (PSI 1-4); higher = more stable; sorted into four equal gates, so the index is relative within each strain
Conditions: ubr1∆
Measured protein stability index values are reported for all entries that follow.
Answer with a bare number; do not write a unit.

sequence: NPPYSQCIVYPNCLFIL [SOH1]
protein stability index: 1.86

sequence: KDLVKNNVSFNAKDIQI [FAS1]
protein stability index: 2.71

Ask | Using known records, supply protein stability index for HNKLIQFGNACISLSGV [SSN2]
Reply | 2.67

Ask | Using known records, supply protein stability index for ADYRLILTGTPLQNNLP [SNF2]
Reply | 2.03

Ask | Using known records, supply protein stability index for NNWFSLPGDMLAVCDEL [SIN4]
Reply | 1.85

Ask | Using known records, supply protein stability index for ALVYSYIEASGREGIWS [RPC34]
Reply | 2.52

Ask | Using known records, supply protein stability index for LFGSKPQGSTTNGGLFG [YGR119C/NUP57]
Reply | 3.28

Ask | Using known records, supply protein stability index for ELTSFSSQPLEPLSDTE [DSN1]
Reply | 3.21

====

Assay: protein stability index of a GFP-peptide fusion (yeast GPS) (PSI 1-4); higher = more stable; sorted into four equal gates, so the index is relative within each strain
Settings: san1∆
Measured protein stability index values are reported for all entries that follow.
Answer with a bare number; do not write a unit.

sequence: ELNVDSMDVDDKNSGVK [ITC1]
reported.value: 1.68

Ask | Using known records, supply protein stability index for NIFSEAVKNKYNVGKQL [PRP28]
Reply | 1.82

====

Assay: protein stability index of a GFP-peptide fusion (yeast GPS) (PSI 1-4); higher = more stable; sorted into four equal gates, so the index is relative within each strain
Conditions: doa10∆
assay.readout: protein stability index
Answer with a bare number; do not write a unit.

Reference set (4 entries):
sequence: KSLDKKIAKRRQVYKPV [POP3]
reported.value: 3.25
--
sequence: KVDNDLRIELQSVYNDE [SRB8]
reported.value: 3.16
--
sequence: ITYGIIKVPTYIRKLIS [SRB8]
reported.value: 1.32
--
sequence: VVEKEKIESLAGGGESD [UBP6]
reported.value: 3.35

Ask | Using known records, supply protein stability index for RKHRNAQFAGRASIEYY [DIS3]
Reply | 2.99

Ask | Using known records, supply protein stability index for VSNPIRKVFKPSQGMVV [FAS1]
Reply | 3.08

Ask | Using known records, supply protein stability index for LNEYKRETLVKTWEKVT [SMC2]
Reply | 1.67

Ask | Using known records, supply protein stability index for GTLEYGTCFGGSKLEDM [RET1]
Reply | 3.17

Ask | Using known records, supply protein stability index for VFYAPNVKNYSTTQEIL [RPC34]
Reply | 2.4

Ask | Using known records, supply protein stability index for VLEYLAAEILELAGNAA [HTA1]
Reply | 2.85

Ask | Using known records, supply protein stability index for VTYALSGYVRSRGESDD [RPS21A]
Reply | 3.3

====

Experiment: protein stability index of a GFP-peptide fusion (yeast GPS) (PSI 1-4); higher = more stable; sorted into four equal gates, so the index is relative within each strain
Conditions: pdr5∆
Measured protein stability index values are reported for all entries that follow.
Answer with a bare number; do not write a unit.

Ask | Using known records, supply protein stability index for MKLVPSIPPATIETFNE [RPB5]
Reply | 2.41

Ask | Using known records, supply protein stability index for NLDYLFELIELVTPKSF [NUT1]
Reply | 3

Ask | Using known records, supply protein stability index for LPTRYTLDVEAFKSVVS [RPL27A]
Reply | 1.55

Ask | Using known records, supply protein stability index for SKSAPSKKISNTAAALV [YAR002W/NUP60]
Reply | 2.97

Ask | Using known records, supply protein stability index for TENDIKALQSIGQLIGE [RPT4]
Reply | 3.06

Ask | Using known records, supply protein stability index for MSDEDNNYDDFMLSDDE [RRI2]
Reply | 3.58

====

Test: protein stability index of a GFP-peptide fusion (yeast GPS) (PSI 1-4); higher = more stable; sorted into four equal gates, so the index is relative within each strain
Conditions: ubr1∆
# binarize protein stability index: threshold 3 inclusive, high side T, low side F

# example entries with known answers
sequence: IQAVFCLTKFQDEEQTE [YCG1]
class.label: F

sequence: VETNTTVLADEFIAHRL [RPB3]
class.label: T

sequence: MQDPDGIDINTKIFNSV [YCG1]
class.label: F

sequence: SYFLQERYFDCCTKFFT [PCI8]
class.label: F

sequence: NAAVAGVANTDTAGEES [SWI3]
class.label: T

sequence: HDNHGNKLGNKRLTEDE [CDC53]
class.label: T

sequence: NVPGVETANVASLNLLQ [RPL4A]
class.label: F

sequence: AELFNNDIKLFVDDTNV [PRP8]
class.label: F

sequence: IESIVNLAPKLRNVFLG [GRR1]
class.label: F

sequence: FNAGSNPPSYQSSEDVI [RPB7]
class.label: F

Ask | Is the recorded value of protein stability index equal to or greater than 3 for this sequence? DEKLKTEKLKNDKSEVL [SRB8]
Reply | T

Ask | Is the recorded value of protein stability index equal to or greater than 3 for this sequence? ERVIVVTGFAEVGPWGS [FAS2]
Reply | F

Ask | Is the recorded value of protein stability index equal to or greater than 3 for this sequence? APYRKQIISNAHNKPSL [YAR002W/NUP60]
Reply | F

Ask | Is the recorded value of protein stability index equal to or greater than 3 for this sequence? EMLEENFPEASKLSEHL [YCG1]
Reply | F

Ask | Is the recorded value of protein stability index equal to or greater than 3 for this sequence? SYLEERERQVNEKLADL [RPC53]
Reply | T

Ask | Is the recorded value of protein stability index equal to or greater than 3 for this sequence? TVSPTQDKDAIRKQPDD [SIR2]
Reply | F

Ask | Is the recorded value of protein stability index equal to or greater than 3 for this sequence? HEIITVGPHFKQANNFL [RPL7A]
Reply | F

Ask | Is the recorded value of protein stability index equal to or greater than 3 for this sequence? LPSPESLKTKLNSNIRA [SNF5]
Reply | F

Ask | Is the recorded value of protein stability index equal to or greater than 3 for this sequence? VNEPTKNEEAEIEVDEM [RPN1]
Reply | T

Ask | Is the recorded value of protein stability index equal to or greater than 3 for this sequence? NETSEQLVPIRLEFDQD [SNF5]
Reply | T

Ask | Is the recorded value of protein stability index equal to or greater than 3 for this sequence? VDKNGAHLYMLEPSGSY [PRE10]
Reply | F

Ask | Is the recorded value of protein stability index equal to or greater than 3 for this sequence? TSKSFSKLLYDDVTCDK [SIN4]
Reply | T

Ask | Is the recorded value of protein stability index equal to or greater than 3 for this sequence? VSNENKKNIDYQNRSTR [RRI1]
Reply | T

Ask | Is the recorded value of protein stability index equal to or greater than 3 for this sequence? SNIMSDSKKIKVDSPDD [GAL11]
Reply | F

Ask | Is the recorded value of protein stability index equal to or greater than 3 for this sequence? VKVHMDSETSDPNEVEI [DIS3]
Reply | T

Ask | Is the recorded value of protein stability index equal to or greater than 3 for this sequence? LISSSQDMQLKIWSVKD [RPN14]
Reply | F

Ask | Is the recorded value of protein stability index equal to or greater than 3 for this sequence? KEELLRDGVLTVTLNKN [RRP45]
Reply | F

====

Measured protein stability index values are reported for all entries that follow.
Assay: protein stability index of a GFP-peptide fusion (yeast GPS) (PSI 1-4); higher = more stable; sorted into four equal gates, so the index is relative within each strain
Details: san1∆
Answer with a bare number; do not write a unit.

sequence: AFTRKQANQVKRHSYAQ [RPS1A]
protein stability index: 2.03
--
sequence: ISHIEKRIESLQKDLQR [SMC1]
protein stability index: 1.75
--
sequence: NANRVFRTRFQDGTSVV [SMC2]
protein stability index: 2.31

In the following, a different sequence is considered.
Ask | Using known records, supply protein stability index for CIIFMDEVDAIGGRRFS [RPT4]
Reply | 2.88
